Molecular target: HD-PTPBro1-CC (1-714) (Homo sapiens)
Construct: HD-PTPBro1-CC (1-714) and AlixBro1 (1-359) were cloned in a pET28a vector; made in house; host or cells: E. coli BL21 (DE3)
Sequence (Q9H3S7 1-714): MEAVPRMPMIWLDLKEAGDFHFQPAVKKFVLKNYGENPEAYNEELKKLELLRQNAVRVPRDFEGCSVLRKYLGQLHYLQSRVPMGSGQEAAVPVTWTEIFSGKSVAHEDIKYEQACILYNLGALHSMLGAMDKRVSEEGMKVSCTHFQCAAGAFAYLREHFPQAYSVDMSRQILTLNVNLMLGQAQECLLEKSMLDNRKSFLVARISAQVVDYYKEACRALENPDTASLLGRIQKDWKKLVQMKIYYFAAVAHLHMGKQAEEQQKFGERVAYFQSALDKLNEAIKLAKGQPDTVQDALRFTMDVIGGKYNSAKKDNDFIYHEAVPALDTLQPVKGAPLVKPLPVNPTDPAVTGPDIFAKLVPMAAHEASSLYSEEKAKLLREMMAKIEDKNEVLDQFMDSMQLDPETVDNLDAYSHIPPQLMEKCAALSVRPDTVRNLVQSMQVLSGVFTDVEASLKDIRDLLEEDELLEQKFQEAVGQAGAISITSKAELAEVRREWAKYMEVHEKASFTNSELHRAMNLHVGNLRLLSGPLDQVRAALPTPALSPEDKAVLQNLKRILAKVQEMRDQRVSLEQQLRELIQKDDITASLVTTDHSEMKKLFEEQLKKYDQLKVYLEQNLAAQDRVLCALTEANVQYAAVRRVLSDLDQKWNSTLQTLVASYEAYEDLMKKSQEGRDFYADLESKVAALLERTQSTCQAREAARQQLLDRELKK
Experiment: Biosensor (SPR) binding of peptides to HD-PTPBro1-CC
Details: 10 mM HEPES pH 7.4, 150 mM NaCl, 0.05% Tween 20, 25°C, poor binding, read-out: Binding (affinity bound) to HD-PTPBro1-CC
Ends that are not written are not given here.
Test Readout: Kd

QUERY: Could you please provide reported Kd for KAAVSDLDKLLDDFEQN ? Thanks!
RESULT: > 1500 µM
